Listed here: items and their measured TGI.
System: RXF 393 renal
TEST_PROTOCOL: NCI tumour cell line growth inhibition, 48 h
REPORTED_PROPERTY: TGI

COMPOUND	REPORTED_PROPERTY	VALUE_REPORTED
O=C(Cc1nc(-c2ccccc2)cc(=O)n1-c1ccccc1Cl)c1ccncc1	TGI	> 100 µM
CCOC(=O)Nc1cc(NC(/C=N/NC(C)=O)C(=O)OCC)c(OC)cc1NC(C)=O (stereo not given)	TGI	> 100 µM
O=S(=O)(O)c1cc(N=Nc2cccc3ccccc23)c(O)c2ncccc12	TGI	> 100 µM
CC(NC(=O)OC(C)(C)C)C(=O)NC(Cc1ccccc1)C(=O)NCC(=O)ON=C1CCCC1 (stereo not given)	TGI	> 100 µM
N#C/C(=C/NC(=S)NCc1ccccc1)C(N)=O	TGI	> 100 µM
CCSc1cc(C(=O)OC)c2n(c1=O)CCCC2	TGI	> 100 µM
O=C(N=Nc1c(O)[nH]c2ccccc12)C(O)(c1ccccc1)c1ccccc1	TGI	28.3 µM
CCOc1ccccc1N1C(=O)C(=O)C(c2nc3ccccc3s2)C(=O)C1=O	TGI	> 100 µM
CC(C)NC(=O)OCc1c(COC(=O)NC(C)C)c(-c2ccc[n+](COC(=O)C(C)C)c2)n2c1CCC2	TGI	> 89.6 µM
COc1cccc2c(=O)c3c(n(C)c12)OC(C(C)C)C3 (stereo not given)	TGI	> 100 µM
O=C(/C=C/c1ccc(Cl)cc1)c1ccc(Cl)c(Cl)c1	TGI	72.2 µM
Cc1cc2nc(N3C(=O)/C(=C/c4ccc(Oc5ccccc5)cc4)N=C3c3ccccc3)sc2cc1C	TGI	> 100 µM
c1ccc(-c2[o+]c(-c3ccccc3)c(-c3ccccc3)c(-c3ccccc3)c2-c2ccccc2)cc1	TGI	> 100 µM
CN(C)c1nc(N)nc(CCl)n1	TGI	> 100 µM
O=C(Nc1ccc2[nH]c3c(-c4ccccc4)nccc3c2c1)c1ccccc1[N+](=O)[O-]	TGI	3.69 µM
[C-]#[O+].[C-]#[O+].[C-]#[O+].[C-]#[O+].[O-]C(c1ccccc1[PH+]1OC(C(F)(F)F)(C(F)(F)F)c2ccccc21)(C(F)(F)F)C(F)(F)F.[Re] (stereo not given)	TGI	4.04 µM
COc1cc(C2CC(c3cccc(Nc4ccnc5cc(Cl)ccc45)c3)=NN2C=O)cc(OC)c1OC (stereo not given)	TGI	5.29 µM
Cc1ccc(S(=O)(=O)Nn2c(S)c(C#N)c(-c3ccc(N(C)C)cc3)c(C#N)c2=O)cc1	TGI	88.3 µM
COC(=O)/C(=N/NC(N)=O)C(C(=O)C(=O)Nc1ccc(C)cc1)c1nc2ccc(C(=O)c3ccccc3)cc2[nH]c1=O (stereo not given)	TGI	> 100 µM
OC/C=C/[C@H](OCc1ccccc1)[C@H](/C=C/CO)OCc1ccccc1	TGI	> 100 µM

Data provenance is PubChem BioAssay (NCI).
